Readings of Z-AUC for the listed molecules
Assay: qHTS drug screen for cell cycle checkpoint inhibitors in PARPi-resistant BRCA-mutant ovarian cancer cell lines. (AID 1963452)
Details: PEO1/OlaR viability, CellTiter-Glo luminescence, 96 h; measured here: PEO1 parental Z-AUC; stronger effect = lower value
Respond with the number and no other words.

Worked examples, 6 molecules total:
CCOP(=O)(OCC)C(C)NC(=O)N(CCCl)N=O (stereo unspecified)    0.417
CCOC(=O)Nc1ccc(NCc2ccc(F)cc2)cc1N    0.0556
COc1ccc2c(c[n+](C)c3c4cc5c(cc4ccc23)OCO5)c1OC    0.375
O=c1[nH]c2ccc(Cl)cc2c(N[C@@H]2CN3CCC2CC3)c1-c1nc2ccccc2[nH]1    -1.35
CC(C)(C)c1cc(C=C(C#N)C#N)cc(Br)c1O    1.11
CC1=C(O)C(=O)C=C2C1=CC=C1[C@@]2(C)CC[C@@]2(C)[C@@H]3C[C@](C)(C(=O)O)CC[C@]3(C)CC[C@]12C    -1.33

In: If you can, please state the reported Z-AUC value of CCNC(=O)C[C@@H]1N=C(c2ccc(Cl)cc2)c2cc(OC)ccc2-n2c(C)nnc21 .
Out: -0.0106

In: Entry CC(C)[C@H]1C(=O)N[C@H](CO)Cc2c[nH]c3cccc(c23)N1C please
Out: -0.654

In: Query CSCC[C@@H](NC(=O)[C@@H](Cc1ccccc1)NC(=O)CNC(=O)CNC(=O)[C@@H](N)Cc1ccc(O)cc1)C(=O)O next
Out: 1.17

In: Param item: CCCC[N+]1(C)[C@H]2CC(OC(=O)[C@H](CO)c3ccccc3)C[C@H]1[C@H]1O[C@H]12 (stereo partly specified)
Out: 1.34

In: Same lookup for CN(C)NC(=O)CCC(=O)O , please.
Out: 0.492

###

Test: Quantitative High-Throughput drug screen in 47 multiple myeloma cell lines against the NCATS MIPE library collection: NCIH929_DSMZ cell viability assay (AID 1918978); note: nearly all actives have a fitted effect of over 35% in size
Conditions: NCI-H929 myeloma viability, CellTiter-Glo ATP, 48 h; series mostly up to 45.8 µM
Results filed as inconclusive are left out. Activity calls are given as the source filed them. Calls follow the shape of the dose curve; as a rule, active = well fitted cell-killing curve with a large enough effect; inconclusive = small, poorly fitted or top-dose-only effect; inactive = no such curve, though single readings can be large or run the other way.
I would appreciate it if you answered using one of these outcomes: class 1 for active, class 0 for inactive

Examples from the recorded data:
O=S(=O)(F)Cc1ccccc1    class 0
O=[N+]([O-])c1ncc[nH]1    class 0
COc1cccc2c1[C@]13CCN(CC4CC4)[C@H](C2)[C@]1(OC)CCC(=O)C3    class 0

In: Outcome logged for CCN1C[C@]2(OC(=O)c3ccccc3NC(C)=O)CC[C@H](OC)[C@@]34[C@H]5CC6[C@@H](OC)C[C@](O)(C(C[C@@H]23)[C@@H]14)[C@@]5(O)[C@@H]6OC in this assay:
Out: class 0

In: Follow-up entry: C[C@]12CC[C@H]3[C@@H](CCC4=CC(=O)CC[C@@]43C)[C@H]1CC[C@H]2O
Out: class 0

In: Proceed to C[C@]12COC(=O)C[C@@H]1CC[C@@H]1[C@H]2CC[C@@]2(C)[C@H]1CC[C@]2(C)O
Out: class 0

###

Target: ATP-dependent 6-phosphofructokinase (Trypanosoma brucei brucei)
Test: qHTS Assay to Find Inhibitors of T. brucei phosphofructokinase: hit validation (AID 492961);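 note: luminescence reports ADP formed as PFK phosphorylates fructose-6-phosphate with ATP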
Conditions: T. brucei PFK, ADP-Glo luminescence; series mostly up to 51.4 µM
Records with an inconclusive call do not appear. Activity calls are given as the source filed them. Calls follow the shape of the dose curve; as a rule, active = well fitted inhibition curve with a large enough effect; inconclusive = small, poorly fitted or top-dose-only effect, or effect the other way; inactive = flat fitted curve, though single readings scatter.
MEASURED_QUANTITY: outcome

C=CCN1CC[C@]23CCCCC2[C@H]1Cc1ccc(O)cc13 (stereo partly drawn)    inactive
C#CC1(O)CCC2C3CCC4=CC(=O)CCC4(C)C3CCC21C (stereo not drawn)    inactive
CCCCCCCCCCCCCCCC[N+](C)(C)C    inactive

###

Assay: qHTS for Inhibitors of the Functional Ribonucleoprotein Complex (vRNP) of Lassa (LASV) Arenavirus: Viability assay - alamar blue signal for LASV Primary Screen (AID 1347083); note: potency is the fitted concentration of half-maximal effect; nearly all actives have a fitted effect of over 80% in size
Conditions: cell viability, alamar blue fluorescence (LASV minigenome counter-screen); series mostly up to 57.5 µM
Inconclusive results are not listed. Calls of active or inactive are those of the source. Calls follow the shape of the full dose curve; tested in HEK293 reporter line.
Parameter Potency: see the listing below.

Worked cases, Potency given:
Cn1c(=O)c(F)c(Nc2ccc(I)cc2F)c2c(=O)n(C[C@@H](O)CO)cnc21    4850 nM (active)
COC(=O)[C@]12CCC(C)(C)C[C@@H]1[C@@H]1C(=O)C=C3[C@@]4(C)C=C(C#N)C(=O)C(C)(C)[C@@H]4CC[C@@]3(C)[C@]1(C)CC2    3430 nM (active)
Cc1c(CN2CCN(C(=O)C(C)C)CC2)sc2c(N3CCOCC3)nc(-c3cnc(N)nc3)nc12    137 nM (active)

In: Entry under review: CCOc1ccc(Nc2nc(-c3c(C)nc4ccccn34)cs2)cc1 . Reported Potency?
Out: 4.9 nM (active)

###

Tested on: CASKI
Test: Primary qHTS to identify gynecologic anti-cancer compounds using libraries of approved drugs and bioactive compounds (AID 1345084); note: nearly all actives have a fitted effect of over 55% in size
Conditions: Gynecologic cancer cell panel viability, ATPlite luminescence, 48 h; series mostly up to 57.5 µM
Records with an inconclusive call do not appear. Active and inactive are the calls of the source. Calls come from the whole dose curve; as a rule, active = well fitted cell-killing curve with a large enough effect; inconclusive = small, poorly fitted or top-dose-only effect, or effect the other way; inactive = flat fitted curve, though single readings scatter.
Result category, one only: label 1 (active), label 0 (inactive)

In: GET /call?item= CC[N+]1(CCOC(=O)C(O)(c2ccccc2)c2ccccc2)CCCCC1 returns the recorded outcome of this test.
Out: label 0

In: Item: Fc1cc(Br)ccc1CBr
Out: label 0

In: Try the compound O=S(=O)(O)C(F)(F)C(F)(F)C(F)(F)C(F)(F)F
Out: label 0

In: What would you report for CC(C)(C)NC[C@H](O)c1ccc(O)cc1Cl ?
Out: label 0

In: Do the same for COC(C)(C)CCCC(C)C/C=C/C(C)=C/C(=O)OC(C)C (centres undefined) please
Out: label 0

In: Try this compound too: c1cc2ccc3cccc4ccc(c1)c2c34
Out: label 0

In: Then CC(C)N(CCNC(=O)CN1CCCC1=O)C(C)C ?
Out: label 0

###

Experiment: NS1 protein of Zika virus - qHTS assay to identify small molecule inhibitors in human HEK 293 cells (AID 1347053);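 note: plate controls were infected untreated cells for no effect and uninfected cells for full effect; nearly all actives have a fitted effect of over 55% in size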
Conditions: HEK293 ZIKV MR766 infection, NS1 TR-FRET, 24 h; series mostly up to 46.1 µM
Records with an inconclusive call do not appear. The source made the active and inactive calls. The call rests on the fitted dose curve; in most records, active means well fitted inhibition curve with a large enough effect; inconclusive means small, poorly fitted or top-dose-only effect; inactive means no such curve, though single readings can be large or run the other way.
MEASURED_QUANTITY: outcome

CCc1c(C(=O)C(N)=O)c2c(OCC(=O)O)cccc2n1Cc1ccccc1    inactive
COc1cccc2c1[C@]13CCN(CC4CC4)[C@H](C2)[C@]1(OC)CCC(=O)C3    inactive
CCOC(=O)Nc1ccc(NCc2ccc(F)cc2)cc1N    inactive

###

Tested on: MKL-1
Assay: qHTS assay to identify novel small-molecules to repurpose for Merkel cell carcinoma treatment (AID 1296009); note: nearly all actives have a fitted effect of over 60% in size
Settings: MCC and control cell lines, CellTiter-Glo viability, 72 h; series mostly up to 46 µM
Results filed as inconclusive are left out. Activity calls are given as the source filed them. The call rests on the fitted dose curve; in most records, active means well fitted inhibition curve with a large enough effect; inconclusive means small, poorly fitted or top-dose-only effect; inactive means flat fitted curve, though single readings scatter.
Choose the fitting class; nothing outside active, inactive is accepted.

# example entries with known answers
O=[N+]([O-])c1ncc[nH]1    inactive
CCCCCCCCCCCCCCCC[N+](C)(C)C    active
c1cc2c(cc1[C@H]1OC[C@H]3[C@H]1CO[C@H]3c1ccc3c(c1)OCO3)OCO2    inactive

In: What outcome does the record of this test show for O=C(O)C(Cl)Cl ?
Out: inactive

###

Assay: qHTS for Inhibitors of the Functional Ribonucleoprotein Complex (vRNP) of Lassa (LASV) Arenavirus: LASV Primary Screen - GLuc reporter signal (AID 1347082); note: nearly all actives have a fitted effect of over 60% in size
Conditions: LASV minigenome vRNP, Gaussia luciferase reporter; series mostly up to 57.5 µM
Inconclusive results are not listed. Active and inactive are the calls of the source. Calls follow the shape of the full dose curve; tested in HEK293 reporter line.
Hi! Could you answer with just one of these? active, inactive

Here are 8 molecules together with their reported answers.
O=C(N[C@H]1CN2CCC1CC2)c1ccc(Cl)cc1    inactive
COc1cc2c(cc1O)CC[C@@H]1[C@@H]2CC[C@]2(C)[C@@H](O)CC[C@@H]12    inactive
CCCN1CCO[C@@H]2c3cc(O)ccc3OC[C@H]21    inactive
CN1CCN(c2ccc([N+](=O)[O-])c3no[n+]([O-])c23)CC1    inactive
COc1ccc2c(c1)CC[C@H]1[C@@H]2CC[C@]2(C)[C@@H](NCCCCCCN3C(=O)C=CC3=O)CC[C@H]12    inactive
CC(C)(C)COc1ccc(-n2cc(C(=O)O)cn2)cc1C#N    inactive
Cc1nn(Cc2ccccc2Cl)c(C)c1CN(C)CC(O)COc1ccc(Cl)cc1 (stereo not drawn)    inactive
CN1CC[C@@H](c2c(O)cc(O)c3c(=O)cc(-c4ccccc4Cl)oc23)[C@@H](O)C1    active

In: What did this assay record as the result for CC(C)(C)c1cc(NC(=O)Nc2ccc(-c3cn4c(n3)sc3cc(OCCN5CCOCC5)ccc34)cc2)no1 ?
Out: inactive

In: Then CC1=C(C(=O)O)N2C(=O)[C@@H](N)[C@H]2SC1 ?
Out: inactive

In: Repeat for the following molecule: O=S(=O)(N=Cc1c(O)ccc2ccccc12)c1cccs1
Out: inactive

In: Then what about the molecule C#CC1(O)CCC2C3CCC4=CC(=O)CCC4(C)C3CCC21C (stereo not drawn) ?
Out: inactive

In: # iterate: COc1cccc(OC)c1-c1cc(C(=O)NC2(C(=O)O)C3CC4CC(C3)CC2C4)nn1-c1ccnc2cc(Cl)ccc12 (stereo not drawn)
Out: inactive

In: Record: C=C1C(=CC=C2CCCC3(C)[C@@H]([C@H](C)C=CC=CC(O)(CC)CC)CC[C@@H]23)C[C@@H](O)C[C@@H]1O (stereo partly drawn)
Out: inactive

In: Please answer likewise for CC(C)(C)c1nnc(NS(=O)(=O)c2ccccc2)s1
Out: inactive
